Ref: patent US20200392228A1

system.name: T1, mouse MAdCAM protein (mouse, UniProt Q61826 22-365, limits assumed)
T1 construct: also called recombinant mouse MAdCAM-1; mMAdCAM-1
T1 sequence (looked up): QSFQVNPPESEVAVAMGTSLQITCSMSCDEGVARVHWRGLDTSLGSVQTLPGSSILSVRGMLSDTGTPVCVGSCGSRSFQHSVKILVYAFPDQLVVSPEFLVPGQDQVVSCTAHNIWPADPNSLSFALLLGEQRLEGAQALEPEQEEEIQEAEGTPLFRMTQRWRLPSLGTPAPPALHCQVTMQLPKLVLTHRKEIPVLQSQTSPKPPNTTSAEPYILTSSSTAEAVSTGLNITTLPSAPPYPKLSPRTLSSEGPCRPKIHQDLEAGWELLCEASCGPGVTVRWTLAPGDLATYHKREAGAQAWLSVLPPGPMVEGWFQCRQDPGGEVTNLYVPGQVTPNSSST
experimental.details: Octet
endpoint.name: binding result

According to the records, this binder MAdCAM antibody Clone ID 79 of Table 7 (IgG) (antibody, V domains shown, IgG format) VH: EVQLLESGGGLVKPGGSLRLSCAASGFTFDDYAMHWVRQAPGKGLEWVASITSSSAFIDYAASVKGRFTISRDDSKNTLYLQMNSLKTEDTAVYYCARERVDWNSYFDLWGRGTLVTVSS VL: EIVMTQSPATLSVSPGERATLSCRASQGISNSYLAWYQQKPGQAPRLLIYGASTRATGIPARFSGSGSGTEFTLTISSLQSEDFAVYYCQQYYTYPPTFGPGTKVDIK displays binding result of binds
